Molecular target: recombinant human SAE enzyme (Homo sapiens, UniProt Q9UBT2)
Sequence (Q9UBT2 1-640): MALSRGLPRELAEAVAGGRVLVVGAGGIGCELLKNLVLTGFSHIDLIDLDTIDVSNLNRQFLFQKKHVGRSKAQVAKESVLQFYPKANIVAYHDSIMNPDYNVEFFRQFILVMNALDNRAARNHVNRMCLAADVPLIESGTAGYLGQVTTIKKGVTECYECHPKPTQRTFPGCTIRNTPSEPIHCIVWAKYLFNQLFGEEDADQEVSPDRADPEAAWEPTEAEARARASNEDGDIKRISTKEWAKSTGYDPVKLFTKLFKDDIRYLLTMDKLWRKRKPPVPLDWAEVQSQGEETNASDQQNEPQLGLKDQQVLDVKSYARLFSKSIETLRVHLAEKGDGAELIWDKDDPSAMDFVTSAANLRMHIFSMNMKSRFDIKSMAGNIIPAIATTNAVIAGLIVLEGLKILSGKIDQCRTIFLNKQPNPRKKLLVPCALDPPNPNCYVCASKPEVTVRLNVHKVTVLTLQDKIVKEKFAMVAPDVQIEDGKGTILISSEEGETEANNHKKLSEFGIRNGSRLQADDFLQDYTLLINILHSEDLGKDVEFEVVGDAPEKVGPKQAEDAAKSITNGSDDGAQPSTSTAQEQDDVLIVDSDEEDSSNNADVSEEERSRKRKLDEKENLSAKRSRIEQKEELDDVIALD
Sequence (Q9UBE0 1-346 partner): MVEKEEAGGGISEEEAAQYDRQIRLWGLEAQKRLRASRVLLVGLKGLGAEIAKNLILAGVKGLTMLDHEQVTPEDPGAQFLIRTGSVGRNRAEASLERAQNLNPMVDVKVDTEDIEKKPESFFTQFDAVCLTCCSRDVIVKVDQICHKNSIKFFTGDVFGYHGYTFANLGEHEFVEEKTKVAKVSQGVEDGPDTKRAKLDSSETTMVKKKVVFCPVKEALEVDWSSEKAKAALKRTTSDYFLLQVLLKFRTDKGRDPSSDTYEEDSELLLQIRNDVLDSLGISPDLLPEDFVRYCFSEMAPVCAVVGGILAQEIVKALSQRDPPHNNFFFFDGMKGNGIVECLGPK
Assay: SAE HTRF Enzyme Assay
Type: biochemical
Conditions: compound concentration 0.111 μM; read-out: Percent Inhibition
Description: The SAE enzymatic reaction totals 50 μl and contains 50 mM HEPES Hemisodium (pH 7.5), 0.05% BSA, 5 mM MgCl2, 0.5 μM ATP, 250 μM GSH, 0.01 μM Ubc9-GST, 0.125 μM Sumo-Flag and 0.11 nM recombinant human SAE enzyme. […] After incubation for 2 hours at 24° C., quantification of FRET is performed on the Pherostar™ (BMG Labtech). Percentage inhibition values at a single concentration or enzyme inhibition (IC50) values are determined from those curves. […]

{"cpd_smiles": "NS(=O)(=O)OC[C@H]1C[C@@H](Nc2ncncc2C(=O)c2ccn(Cc3sccc3Cl)n2)C[C@@H]1O", "inhibition at 0.111 µM / %": 97}
{"cpd_smiles": "NS(=O)(=O)OC[C@H]1C[C@@H](Nc2ncncc2C(=O)c2ccn(Cc3ccc(C(F)(F)F)cc3C(F)(F)F)n2)C[C@@H]1O", "inhibition at 0.111 µM / %": 39}
{"cpd_smiles": "NS(=O)(=O)OC[C@H]1C[C@@H](Nc2ccncc2C(=O)c2ccn(Cc3ccc(Cl)c(Cl)c3)n2)C[C@@H]1O", "inhibition at 0.111 µM / %": 97}
{"cpd_smiles": "NS(=O)(=O)OC[C@H]1C[C@@H](Nc2ncncc2C(=O)c2ccn(Cc3ccc(F)cc3)n2)C[C@@H]1O", "inhibition at 0.111 µM / %": 92}
{"cpd_smiles": "NS(=O)(=O)OC[C@H]1C[C@@H](Nc2ncncc2C(=O)c2ccn(Cc3cc(C(F)(F)F)ccc3Cl)n2)C[C@@H]1O", "inhibition at 0.111 µM / %": 99}
{"cpd_smiles": "NS(=O)(=O)OC[C@H]1C[C@@H](Nc2ncncc2C(=O)c2ccn(Cc3cc(F)cc(F)c3)n2)[C@H](O)[C@@H]1O", "inhibition at 0.111 µM / %": 96}
{"cpd_smiles": "NS(=O)(=O)OC[C@H]1C[C@@H](Nc2ncncc2C(=O)c2ccn(Cc3ccc(C(F)(F)F)cc3)n2)[C@H](O)[C@@H]1O", "inhibition at 0.111 µM / %": 98}
{"cpd_smiles": "Cc1ccnc(Cn2ccc(C(=O)c3cncnc3N[C@@H]3C[C@H](COS(N)(=O)=O)[C@@H](O)C3)n2)c1", "inhibition at 0.111 µM / %": 99}
{"cpd_smiles": "Cc1cc(C(=O)c2cncnc2N[C@@H]2C[C@H](COS(N)(=O)=O)[C@@H](O)C2)nn1Cc1cccc(Br)c1", "inhibition at 0.111 µM / %": 100}
{"cpd_smiles": "Cc1cc(Cn2ccc(C(=O)c3cncnc3N[C@@H]3C[C@H](COS(N)(=O)=O)[C@@H](O)C3)n2)no1", "inhibition at 0.111 µM / %": 94}
